Exercise: state measured IC50 for each of the molecules provided.
target: human recombinant A2B adenosine receptor (Homo sapiens); assay: cAMP assay in CHO hA2B; conditions: confidence limits in parentheses; read-out: cAMP assay in CHO hA22B IC50
Sequence (P29275 whole entry): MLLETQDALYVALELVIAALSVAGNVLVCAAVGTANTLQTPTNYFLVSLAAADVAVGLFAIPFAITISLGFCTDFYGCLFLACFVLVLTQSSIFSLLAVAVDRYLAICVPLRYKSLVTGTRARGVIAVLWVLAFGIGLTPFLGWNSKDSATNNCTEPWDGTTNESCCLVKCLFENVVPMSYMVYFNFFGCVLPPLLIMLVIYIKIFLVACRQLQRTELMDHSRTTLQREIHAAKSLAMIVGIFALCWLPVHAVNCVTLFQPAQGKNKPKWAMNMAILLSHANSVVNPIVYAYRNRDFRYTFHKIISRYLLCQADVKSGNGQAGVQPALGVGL

// molecule CCCn1c(=O)c2c(nc3n2CC(c2ccccc2)=NN3C)n(Cc2ccccc2)c1=O , assay human recombinant A2B adenosine receptor (Homo sapiens), IC50 value: > 1 µM

// molecule CCCn1c(=O)c2c(nc3[nH]c(C)cn32)n(Cc2ccccc2)c1=O , assay human recombinant A2B adenosine receptor (Homo sapiens), IC50 value: 2.06 µM

// molecule CC(C)Cn1c(=O)c2c(nc3[nH]c(-c4ccccc4)cn32)n(CC(C)C)c1=O , assay human recombinant A2B adenosine receptor (Homo sapiens), IC50 value: > 1 µM

// molecule CCCn1c(=O)c2c(nc3n2CC(C)=C3)n(Cc2ccccc2)c1=O , assay human recombinant A2B adenosine receptor (Homo sapiens), IC50 value: 0.4 µM

// molecule CCCn1c(=O)c2c(nc3n2CC(c2ccccc2)=NN3CCO)n(Cc2ccccc2)c1=O , assay human recombinant A2B adenosine receptor (Homo sapiens), IC50 value: > 1 µM

// molecule Cc1cn2c(nc3c2c(=O)n(C)c(=O)n3C)[nH]1 , assay human recombinant A2B adenosine receptor (Homo sapiens), IC50 value: > 1 µM

// molecule CCCn1c(=O)c2c(nc3[nH]c(-c4ccccc4)cn32)n(CCC)c1=O , assay human recombinant A2B adenosine receptor (Homo sapiens), IC50 value: > 1 µM

// provenance: patent US7435740B2
